Sourced from PubChem BioAssay

- Tested on: Noggin (protein binding on small-molecule microarray)
- protocol description: Noggin binders on small-molecule microarray, primary screen, biochemical, 635/667 nm fluorescence (AID 1095);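 further: score merges 667 nm feature fluorescence with signal to noise over triplicate slides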
- particulars: 635 nm fluorescence, higher = more signal
# binarize composite z-score: threshold 0.4 inclusive, high side 1, low side 0

Record excerpt, results attached:
molecule	group
COC(=O)[C@@H]1CC[C@@H](C)[C@H](c2ccc(Br)cc2)N1	0
CCOC(=O)NN=C1C[C@@H](O)[C@@H](O)[C@@H]2[C@@H]3C(=O)N([C@@H](C)c4ccccc4)C(=O)[C@@H]3CC[C@H]12	0
COC(=O)[C@H](C)NC(=O)CCC1CC(OC(=O)NCCc2ccc(F)cc2)CC2(CCCC(COC(=O)NCc3cccc(C(F)(F)F)c3)O2)O1 (some centres not stated)	1
COC(=O)[C@H](C)NC(=O)CCC1CC(OC(=O)NCc2cccc3ccccc23)CC2(CCCC(COC(=O)NCC(c3ccccc3)c3ccccc3)O2)O1 (some centres not stated)	1
O=C(NN=C1C[C@@H](O)[C@@H](O)[C@@H]2[C@@H]3C(=O)N(C[C@@H]4CCCO4)C(=O)[C@@H]3CC[C@H]12)OCc1ccccc1	0

(Q) Determine whether measured composite z-score meets or exceeds 0.4 for O=C1CCCC=C1C(O)CCOC(c1ccccc1)(c1ccccc1)c1ccccc1 (configuration not stated)
(A) 1

(Q) Determine whether measured composite z-score meets or exceeds 0.4 for C=CC[C@@H]1C=C[C@H](ON=C(C)CCC(=O)OC[C@H]2O[C@H](c3ccccc3)C=C[C@@H]2Oc2ccc(OC)cc2)[C@@H](CO)O1
(A) 0

(Q) Determine whether measured composite z-score meets or exceeds 0.4 for CC(=O)O[C@H]1C2=CO[C@H](C)[C@H]3[C@H]4C5=C([C@H](O)[C@H]6O[C@H]6C5=O)[C@H](OC4C)[C@@]23C(=O)[C@@H]2O[C@@H]21 (some centres not stated)
(A) 1

(Q) Determine whether measured composite z-score meets or exceeds 0.4 for C=CC[C@@H]1C=C[C@H](ON=C(C)CCN2CCc3nc(-c4ccccc4)c(-c4ccccc4)cc3C2)[C@@H](CO)O1
(A) 1
